System: CCRIS mutagenicity, Ames/micronucleus/aberration tests
measurement_notes: CCRIS mutagenicity studies
reported_conditions: Test System: E. COLI; Strain/Indicator: WP2 UVRA; Metabolic Activation: RAT, LIVER, S-9, AROCLOR 1254; Method: STANDARD PLATE
From the text: The CCRIS database contains chemical records with carcinogenicity, mutagenicity, tumor promotion, and tumor inhibition test results. It was developed by the National Cancer Institute (NCI). Data are derived from studies cited in primary journals, current awareness tools, NCI reports, and other sources. Test results have been reviewed by experts in carcinogenesis and mutagenesis. CCRIS provides historical information from the years 1985 - 2011. It is no longer updated. […]
Activity calls are given as the source filed them. How the calls were made is not given here.
Labels: 1 (active), -1 (inactive)

smiles_record	discrete_label
COc1ccc(C(c2ccc(OC)cc2)C(Cl)(Cl)Cl)cc1	-1
O=c1[nH]cc(N(CCCl)CCCl)c(=O)[nH]1	1
Nc1ccc(O)c([N+](=O)[O-])c1	-1
CCN(N=O)c1ccccc1	-1
Clc1ccc2c(c1)C(c1ccccc1)=NCc1nncn1-2	-1
COC(=O)Nc1nc2ccc(OS(=O)(=O)c3ccc(F)cc3)cc2[nH]1	-1
COc1ccc(N)c(C)c1	-1

====

System: CCRIS mutagenicity, Ames/micronucleus/aberration tests
measurement_notes: CCRIS mutagenicity studies
reported_conditions: Test System: MOUSE LYMPHOMA; Strain/Indicator: L5178Y (TK+/TK-); Metabolic Activation: RAT, LIVER, S-9; Method: SUSPENSION/PLATE
The source made the active and inactive calls. No rule for the calls is given here.
Labels: active, inactive

smiles_record	tested_on	discrete_label
CCC1(c2ccccc2)C(=O)NC(=O)NC1=O	CCRIS mutagenicity, Ames/micronucleus/aberration tests	inactive
CC1(C)S[C@@H]2[C@H](NC(=O)COc3ccccc3)C(=O)N2[C@H]1C(=O)O	CCRIS mutagenicity, Ames/micronucleus/aberration tests	active
OC[C@H]1O[C@@](CO)(O[C@H]2O[C@H](CO)[C@@H](O)[C@H](O)[C@H]2O)[C@@H](O)[C@@H]1O	CCRIS mutagenicity, Ames/micronucleus/aberration tests	inactive
COc1ccc(C(c2ccc(OC)cc2)C(Cl)(Cl)Cl)cc1	CCRIS mutagenicity, Ames/micronucleus/aberration tests	active
c1ccccc1	CCRIS mutagenicity, Ames/micronucleus/aberration tests	inactive
CCn1cc(C(=O)O)c(=O)c2cc(F)c(-c3ccncc3)c(F)c21	CCRIS mutagenicity, Ames/micronucleus/aberration tests	active

====

Tested on: CCRIS mutagenicity, Ames/micronucleus/aberration tests
measurement_notes: CCRIS mutagenicity studies
reported_conditions: Test System: AMES SALMONELLA TYPHIMURIUM; Strain/Indicator: TA100; Metabolic Activation: RAT, LIVER, S-9, AROCLOR 1254; Method: PREINCUBATION
Active and inactive are the calls of the source. No rule for the calls is given here. Where a SMILES comes first, the peptide text is derived from it. [ ]: non-standard residue; d: D form. ξ: configuration not given here. Trp(1-OMe) = COn1cc(C[C@H](N)C(=O)O)c2ccccc21; Asu = N[C@@H](CCCCCC(=O)O)C(=O)O; Ile(3ξ) = CCC(C)[C@H](N)C(=O)O; dPip = O=C(O)[C@H]1CCCCN1
Labels: active, inactive

molecule	discrete_label
OCC1CCCO1 (stereo unspecified)	inactive
O=c1cc(CO)occ1O	inactive
Nc1ccc(N)c(S(=O)(=O)O)c1	inactive
CC1(C)S[C@@H]2[C@H](NC(=O)COc3ccccc3)C(=O)N2[C@H]1C(=O)O	inactive
CCC(C)[C@@H]1NC(=O)[C@H](Cc2cn(OC)c3ccccc23)NC(=O)[C@H](CCCCCC(=O)OC)NC(=O)[C@H]2CCCCN2C1=O (stereo partly specified) (cyclo([Asu](OMe)[Trp(1-OMe)][Ile(3ξ)][dPip]))	inactive
CNc1c(C)cc2ncccc2c1N	inactive
O=P(O)(O)O	inactive
ClC1(Cl)C2(Cl)C3(Cl)C4(Cl)C(Cl)(Cl)C5(Cl)C3(Cl)C1(Cl)C5(Cl)C24Cl (stereo unspecified)	inactive
Clc1cc(Cl)c(Cl)c(Cl)c1Cl	inactive
Nc1nc(=O)n([C@H]2C[C@H](O)[C@@H](CO)O2)cc1I	inactive
CC/C=C/C=C/C=C/C=C/C=C\OC[C@@H](O)CO	active

====

System: CCRIS mutagenicity, Ames/micronucleus/aberration tests
measurement_notes: CCRIS mutagenicity studies
reported_conditions: Test System: AMES SALMONELLA TYPHIMURIUM; Strain/Indicator: TA1535; Metabolic Activation: NONE; Method: PREINCUBATION
Active and inactive are the calls of the source. How the calls were made is not given here.
Labels: True = active, False = inactive

molecule	discrete_label
COC(=O)c1ccc(C)cc1	False
CC[N+]([O-])=NC	False
ClC1(Cl)C2(Cl)C3(Cl)C4(Cl)C(Cl)(Cl)C5(Cl)C3(Cl)C1(Cl)C5(Cl)C24Cl (stereo not given)	False
C=CC(O)C=C	False
O=Cc1ccc(O)cc1	False
CC(CC(=O)O)C(=O)O (stereo not given)	False
Cc1ccc(C)o1	False
Oc1ccccc1-c1ccccc1	True
CN(C)CCN(Cc1ccc(Cl)s1)c1ccccn1	False
Cc1ccc(N=Nc2c(O)ccc3ccccc23)c([N+](=O)[O-])c1	False
Cc1c(C)c(Br)c(Br)c(Br)c1Br	False
c1ccc(Nc2ccccc2)cc1	False
COC(F)(F)C(Cl)Cl	False
C=CC[N+](C)(C)CC=C	False
Oc1c(Cl)c(Cl)c(Cl)c(Cl)c1Cl	False

====

Tested on: CCRIS mutagenicity, Ames/micronucleus/aberration tests
measurement_notes: CCRIS mutagenicity studies
reported_conditions: End Point: In vitro micronucleus; Test System: Chinese Hamster Ovary (CHO-WBL) cells; Metabolic Activation: None
Activity calls are given as the source filed them. How the calls were made is not given here.
Labels: Yes (active), No (inactive)

smiles_record	discrete_label
CCCCl	No
CCCCBr	No
CCCOS(=O)(=O)c1ccc(C)cc1	No
CCOS(=O)(=O)c1ccc(C)cc1	Yes

====

System: CCRIS mutagenicity, Ames/micronucleus/aberration tests
measurement_notes: CCRIS mutagenicity studies
reported_conditions: Test System: AMES SALMONELLA TYPHIMURIUM; Strain/Indicator: TA100; Metabolic Activation: NONE; Method: STANDARD PLATE
Activity calls are given as the source filed them. No rule for the calls is given here.
Labels: active, inactive

compound	discrete_label
COC1(O[C@H]2CC[C@H]3[C@@H]4CC[C@H]5C[C@@H]6S[C@@H]6C[C@]5(C)[C@H]4CC[C@]23C)CCCC1	inactive
C[C@]12CC[C@H](OC(=O)/C=C/c3cccc(N(CCCl)CCCl)c3)C[C@@H]1CC[C@@H]1[C@@H]2CC[C@]2(C)NC(=O)CC[C@@H]12	inactive
O=CC(O)C(O)C(O)CO (stereo unspecified)	inactive
O=c1cc(CO)occ1O	active
O=S(c1cc(Cl)cc(Cl)c1O)c1cc(Cl)cc(Cl)c1O	active
Nc1ccc(-c2ccc(N)c(F)c2)cc1F	inactive
C=CCc1[c-]cccc1.C=CCc1[c-]cccc1.[Pt+2]	inactive
C/C=C1\CC2C=CC1C2 (stereo unspecified)	inactive
O=C(O)CC(O)C(=O)O (stereo unspecified)	inactive
O=C(CCCN1CCC(O)(c2ccc(Cl)cc2)CC1)c1ccc(F)cc1	inactive
COc1cccc2c(NCCCNCCCl)c3ccccc3nc12	active

====

Test system: CCRIS mutagenicity, Ames/micronucleus/aberration tests
measurement_notes: CCRIS mutagenicity studies
reported_conditions: End Point: IN VITRO CHROMOSOMAL ABERRATIONS; Test System: CHINESE HAMSTER OVARY CELLS; Metabolic Activation: NONE
The source made the active and inactive calls. How the calls were made is not given here.
Labels: Yes (active), No (inactive)

smiles_record	discrete_label
CC(C)CCON=O	Yes
Cc1cccc(C)c1N	Yes
Nc1ccc(Cl)cc1[N+](=O)[O-]	No
CN(C)CCCN1c2ccccc2Sc2ccc(Cl)cc21	No
Nc1ccc(-c2ccc(N)cc2)cc1	No
Nc1ccc(N=Nc2ccccc2)c(N)n1	Yes
Oc1c(Cl)c(Cl)c(Cl)c(Cl)c1Cl	No

====

System: CCRIS mutagenicity, Ames/micronucleus/aberration tests
measurement_notes: CCRIS mutagenicity studies
reported_conditions: Test System: AMES SALMONELLA TYPHIMURIUM; Strain/Indicator: TA100; Metabolic Activation: HAMSTER, LIVER, S-9, AROCLOR 1254 (10%); Method: PREINCUBATION
Active and inactive are the calls of the source. No rule for the calls is given here.
Labels: yes for active, no for inactive

compound	discrete_label
CNc1ccc(N(CCO)CCO)cc1[N+](=O)[O-]	yes
O=C1c2ccccc2C(=O)C1(O)O	no
CN(C)CCCN1c2ccccc2Sc2ccc(Cl)cc21	no
C=CC1CO1 (centres undefined)	yes
CCN(CC)CCCC(C)Nc1c2ccc(Cl)cc2nc2ccc(OC)cc12 (centres undefined)	no
CC/C=C1\OC(=O)c2ccccc21	no
CN(C)c1ccc(N=NS(=O)(=O)O)cc1	yes
Nc1cc([N+](=O)[O-])cc(Cl)c1O	no
Nc1cccc(O)c1	no
CCC(C)Nc1ccc(NC(C)CC)cc1 (centres undefined)	no
NCCNCCNCCNCCN	yes
O=S(=O)(O)c1ccc(N=Nc2c(O)ccc3cc(S(=O)(=O)O)ccc23)cc1	no
Oc1c(I)cc(Cl)c2cccnc12	no
CCCNC(=O)NS(=O)(=O)c1ccc(Cl)cc1	no

Reference for the values: PubChem BioAssay AID1259407
